Listed molecules paired with reported AUC(0-t)
- ASSAY METHOD TEXT: Pharmacokinetic study, plasma and brain levels by LC-MS/MS
- Type: in vivo
- EXPERIMENTAL CONDITIONS: both sexes, C57BL6, mouse; Brain; intravenous 10 mg/kg, mice; read-out: AUC0-48
Number in ng·h/mL, nothing else.

Answered cases to consult:
MOLECULE | AUC(0-t) / ng·h/mL
COc1ccc2nc(N[C@@H](c3ccc(O)cc3)P(=O)(OC)OC)sc2c1 (racemic) | 6.9
COc1ccc2nc(N[C@@H](c3ccc(F)cc3)P(=O)(OC)OC)sc2c1 | 64

Attention now shifts to the item below.
Form: molecule = COC(=O)c1cc([C@H](Nc2nc3ccc(OC)cc3s2)P(=O)(OC)OC)ccc1O ; AUC(0-t) = 66.5
